AC50 listing for selected molecules.
- target.entity: Thromboxane A2 receptor (Homo sapiens, UniProt P21731); note: assay procedure not described here
- Sequence (P21731 whole entry): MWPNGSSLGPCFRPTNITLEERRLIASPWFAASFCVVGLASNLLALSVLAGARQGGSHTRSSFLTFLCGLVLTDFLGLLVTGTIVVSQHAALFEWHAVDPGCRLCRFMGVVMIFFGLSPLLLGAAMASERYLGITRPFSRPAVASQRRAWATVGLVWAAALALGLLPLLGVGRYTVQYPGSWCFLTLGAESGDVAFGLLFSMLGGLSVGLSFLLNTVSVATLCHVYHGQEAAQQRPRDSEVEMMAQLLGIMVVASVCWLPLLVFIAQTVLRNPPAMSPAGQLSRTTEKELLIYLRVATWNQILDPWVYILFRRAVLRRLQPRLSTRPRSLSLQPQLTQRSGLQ
- Format: functional, cell-based

Illustrative cases are given below, each with its answer.
molecule="COc1cc(NCc2ccc3nc(N)nc(N)c3c2C)cc(OC)c1OC [TRIMETREXATE]" recorded_result="> 30 µM"
molecule="O=C(COc1ccc(Cl)cc1)N1CCN(Cc2ccc3c(c2)OCO3)CC1 [FIPEXIDE]" recorded_result="11.3 µM"
molecule=O=C(Cn1ccnc1[N+](=O)[O-])NCc1ccccc1 recorded_result="> 30 µM"
molecule="O=C1CC[C@@]2(O)[C@H]3Cc4ccc(O)c5c4[C@@]2(CCN3CC2CC2)[C@H]1O5 [NALTREXONE]" recorded_result="> 30 µM"
molecule=Cc1ccc(O)c2ncccc12 recorded_result="> 30 µM"
molecule=O=C(O)CCn1c2c(c3ccccc31)C[C@H](NS(=O)(=O)c1ccc(F)cc1)CC2 recorded_result="0.04 µM"
molecule=O=C(c1ccc(F)c(F)c1Nc1ccc(I)cc1F)N1CC(O)([C@@H]2CCCCN2)C1 recorded_result="> 3 µM"
molecule=CC[C@@H]1/C=C(\C)C[C@H](C)C[C@H](OC)[C@H]2O[C@@](O)(C(=O)C(=O)N3CCCC[C@H]3C(=O)O[C@H](/C(C)=C/[C@@H]3CC[C@H](Cl)[C@H](OC)C3)[C@H](C)[C@@H](O)CC1=O)[C@H](C)C[C@@H]2OC recorded_result="> 30 µM"
molecule=OCCN1CCN(CCCN2c3ccccc3C=Cc3ccccc32)CC1 recorded_result="> 30 µM"
molecule=CCN(CC)CCNc1ccc(C)c2sc3ccccc3c(=O)c12 recorded_result="13.4 µM"

Q) For the molecule shown here, CC(=O)O[C@]1(C(C)=O)CC[C@H]2[C@@H]3C[C@H](C)C4=CC(=O)CC[C@]4(C)[C@H]3CC[C@@]21C [MEDROXYPROGESTERONE ACETATE] , give the reported AC50.
A) > 30 µM

Q) // next record `Nc1nc2c(ncn2CCC(CO)CO)c(=O)[nH]1`
A) > 30 µM

Q) // next record `C#C[C@]1(O)CC[C@H]2[C@@H]3CCC4=CC(=O)CC[C@@H]4[C@H]3CC[C@@]21CC`
A) > 30 µM

Q) Check `COc1cc(Nc2c(C#N)cnc3cc(OCCCN4CCN(C)CC4)c(OC)cc23)c(Cl)cc1Cl` too.
A) > 3 µM

Q) Query `O=C(O)c1cccc(-c2noc(-c3ccccc3F)n2)c1` next
A) > 30 µM

Q) Do the same for `CC/C=C\C/C=C\C/C=C\C/C=C\C/C=C\CCCC(=O)O` please
A) > 30 µM

Q) Try COc1ccc2c(c1)OC(C)(C)C(c1ccccc1)C2c1ccc(OCCN2CCCC2)cc1 (configuration not stated) next.
A) 12.2 µM
